Just for reference, ChEMBL document CHEMBL1124100 is where these values come from.

biological target: Adenosine receptor A1 (Rattus norvegicus, UniProt P25099); assay: Inhibition of binding towards adenosine A1 receptor using [3H]N-cyclohexyladenosine ([3H]CHA) in rat whole brain membranes.
Sequence (P25099 whole entry): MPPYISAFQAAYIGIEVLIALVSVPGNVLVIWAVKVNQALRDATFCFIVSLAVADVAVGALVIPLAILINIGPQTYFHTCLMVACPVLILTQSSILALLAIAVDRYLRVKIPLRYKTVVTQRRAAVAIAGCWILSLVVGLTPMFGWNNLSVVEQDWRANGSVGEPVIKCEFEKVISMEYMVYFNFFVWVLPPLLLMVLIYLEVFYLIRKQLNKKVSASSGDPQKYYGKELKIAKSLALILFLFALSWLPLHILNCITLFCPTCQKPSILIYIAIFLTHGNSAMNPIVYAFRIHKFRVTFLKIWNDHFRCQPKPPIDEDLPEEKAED
pIC50: −log10 of the molar value.
quantity_kind: pIC50

Below are worked cases with known answers.
> print(dat)
                                   compound  reported.result
1  CS(=O)(=O)O.Nc1nc2ccc(Cl)cc2c2nc(-c3ccoc3)nn12             6.53
2  Nc1nc2ccc(OCc3ccccc3)cc2c2nc(-c3ccco3)nn12             6.84

I: CC(C)Nc1nc2ccc(Cl)cc2c2nc(-c3ccco3)nn12
II: Nc1nc2ccc(O)cc2c2nc(-c3ccco3)nn12
Lab notebook, comparison: I versus II , higher pIC50 goes to which? // output: label of the selected item
II
(II: 8.02, I: 7.66)

====

molecular target: Adenosine receptor A1 (Rattus norvegicus, UniProt P25099); test: Inhibition of binding towards adenosine A1 receptor using [3H]N-cyclohexyladenosine ([3H]CHA) in rat whole brain membranes.
pIC50: −log10 of the molar value.
quantity_kind: pIC50

Below are worked cases with known answers.
> print(dat)
                                   molecule  reported.result
1    Nc1nc2ccc(Cl)cc2c2nc(-c3ccc(Br)o3)nn12             5.80
2  CCC(C)Nc1nc2ccc(Cl)cc2c2nc(-c3ccco3)nn12.CS(=O)(=O)O (stereo unspecified)             7.21
3  CS(=O)(=O)O.Nc1nc2ccc(Cl)cc2c2nc(-c3ccc[nH]3)nn12             6.21

1: CNc1nc2ccc(Cl)cc2c2nc(-c3ccco3)nn12
2: Nc1nc2ccccc2c2nc(-c3ccco3)nn12
3: Oc1nc2ccc(Cl)cc2c2nc(-c3ccco3)nn12
4: Nc1nc2ccc(Cl)cc2c2nc(C3CCCO3)nn12 (stereo unspecified)
5: OCCNc1nc2ccc(Cl)cc2c2nc(-c3ccco3)nn12
Please order the records by their reported pIC50, lowest number first. Field: ranking. Enter the labels in the order requested.
3, 4, 1, 2, 5

====

target: Adenosine receptor A1 (Rattus norvegicus) (UniProt P25099); experiment: Ratio of Ki at A2 to Ki at A1 receptors
Sequence (P25099 whole entry): as above
quantity_kind: Ratio

> print(dat)
                                   compound  reported.result
1  CS(=O)(=O)O.Nc1nc2ccc(Cl)cc2c2nc(-c3ccc[nH]3)nn12                2

1: Nc1nc2ccc(OCc3ccccc3)cc2c2nc(-c3ccco3)nn12
2: OCCNc1nc2ccc(Cl)cc2c2nc(-c3ccco3)nn12
3: CNc1nc2ccc(Cl)cc2c2nc(-c3ccco3)nn12
4: Nc1nc2ccc(Cl)cc2c2nc(-c3ccc(Br)o3)nn12
Please order the records by their reported Ratio, lowest number first. Field: ranking. Enter the labels in the order requested.
4, 3, 2, 1
(4: 0.34, 3: 0.69, 2: 2.7, 1: 8.9)

a: Nc1nc2ccc(Cl)cc2c2nc(C3CCCO3)nn12 (stereo not drawn)
b: COc1ccc2nc(N)n3nc(-c4ccco4)nc3c2c1
c: CC(C)Nc1nc2ccc(Cl)cc2c2nc(-c3ccco3)nn12
Please order the records by their reported Ratio, lowest number first. Field: ranking. Enter the labels in the order requested.
b, a, c
